# Measured on: Cytochrome P450 1A2 (Homo sapiens) (UniProt P05177)
# Sequence (P05177 whole entry, looked up): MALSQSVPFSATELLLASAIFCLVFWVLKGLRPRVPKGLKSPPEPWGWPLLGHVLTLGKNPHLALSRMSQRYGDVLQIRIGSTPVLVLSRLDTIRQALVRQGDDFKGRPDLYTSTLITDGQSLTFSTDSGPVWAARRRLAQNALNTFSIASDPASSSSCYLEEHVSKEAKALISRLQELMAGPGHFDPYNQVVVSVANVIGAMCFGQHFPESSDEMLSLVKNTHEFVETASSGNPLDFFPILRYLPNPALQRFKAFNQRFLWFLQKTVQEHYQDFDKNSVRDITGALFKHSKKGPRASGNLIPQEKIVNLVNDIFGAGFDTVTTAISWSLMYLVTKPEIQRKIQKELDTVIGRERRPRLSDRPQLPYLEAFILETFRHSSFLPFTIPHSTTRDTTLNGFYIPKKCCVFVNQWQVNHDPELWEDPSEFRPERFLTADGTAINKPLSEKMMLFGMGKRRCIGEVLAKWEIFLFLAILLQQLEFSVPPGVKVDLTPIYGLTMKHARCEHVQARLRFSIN
# Test details: Cytochrome panel assay with activity outcomes
# Settings: recombinant CYP, pro-luciferin dealkylation, luminescence, p450-cyp1a2; series mostly up to 57.1 µM
The campaign covered roughly 16,000 compounds. About 5,700 (36%) were called active. Not shown: some 24% with an inconclusive outcome. Calls come from the whole dose curve; as a rule, active = well fitted curve in the direction sought with a large enough effect; inconclusive = small, poorly fitted or top-dose-only effect, or effect the other way; inactive = no such curve, though single readings can be large or run the other way. The list shows a part of the results.
A correct response names exactly one class from active, inactive

Reference set, count: 6
Molecule: CN(C)C(=O)CCc1nc(-c2ccc(C(C)(C)C)cc2)no1
Measured on: Cytochrome P450 1A2 (Homo sapiens) (UniProt P05177)
Assigned category: active
--
Molecule: CC(Cc1ccccc1)C(=O)NCc1ccccn1 (centres undefined)
Measured on: Cytochrome P450 1A2 (Homo sapiens) (UniProt P05177)
Assigned category: active
--
Molecule: c1ccc(CNc2ncncc2-c2ccc3c(c2)OCO3)cc1
Measured on: Cytochrome P450 1A2 (Homo sapiens) (UniProt P05177)
Assigned category: active
--
Molecule: c1ccc(Nc2ncncc2-c2ccc3c(c2)OCO3)cc1
Measured on: Cytochrome P450 1A2 (Homo sapiens) (UniProt P05177)
Assigned category: active
--
Molecule: CNC(=O)CCc1nc(-c2ccc(C(C)(C)C)cc2)no1
Measured on: Cytochrome P450 1A2 (Homo sapiens) (UniProt P05177)
Assigned category: active
--
Molecule: CN(N=O)C(=O)N[C@H]1[C@@H](O)[C@H](O)[C@H](CO)O[C@@H]1O
Measured on: Cytochrome P450 1A2 (Homo sapiens) (UniProt P05177)
Assigned category: inactive

Which result was noted for this molecule in the test: Cc1ncc(N=Nc2ccccc2Cl)c(-c2ccccc2)n1 active

Record lookup: outcome of this test for CCOC(=O)C1=C(c2ccccc2)N=c2s/c(=C\c3ccco3)c(=O)n2C1c1cccs1 (centres undefined) ? active

State the result this test recorded for COc1ccc(Cn2nnnc2C(c2ccccc2Cl)N2CCC(C(N)=O)CC2)cc1 (centres undefined) . inactive

What outcome does the record of this test show for COCC(=O)N1CCC2(CC1)CN(C(=O)Nc1ccccc1)C2 ? active

For CNc1ncnc2c1ncn2[C@@H]1O[C@H](CO)[C@@H](O)[C@@H]1O , which call appears in the assay record? inactive

I would be grateful if you could indicate the recorded call for O=C(Oc1ccccc1)N1CCC2(CCCN(c3cccc(-c4ccccc4)c3)C2)CC1 . inactive

Please indicate how the test categorized CC(=O)Nc1nnc(SCc2ccc(F)cc2)s1 . active

Outcome? CCc1ccc2c(-c3cccc(Cl)c3)nc(=O)n(CC)c2n1 active

I would be grateful if you could indicate the recorded call for CCOC(=O)c1c(NC(=O)Cn2cc([N+](=O)[O-])cn2)sc2c1CCC2 . active

Which outcome was assigned to O=C(NCc1ccccc1)c1ccc(S(=O)(=O)N2CCCc3ccccc32)cc1 in this test? inactive

Called result for CCOC(=O)C1=C(c2ccccc2)N=c2s/c(=C\c3ccc(O)cc3)c(=O)n2C1c1cccs1 (centres undefined) inactive

Any idea what this test logged for O=C(Oc1ccccc1)N1CCC2(CC1)CCN(c1ccncc1)CC2 ? inactive

Give the logged outcome of this assay for the following molecule: CCc1ccc2[nH]c(O)c(N=Nc3nc(-c4ccccc4)cs3)c2c1 active

What did the test return for CCc1ccc(-c2csc(NC(=O)C3CCCO3)c2C(=O)OC(C)C)cc1 (centres undefined) ? active

Entry C#CCOC(=O)NC(/C=C/CCCC)c1ccccc1 (centres undefined) : call = ? active

Could you please tell me the result logged for CCCC/C=C/C(NC(=O)Oc1cccc(C(F)(F)F)c1)c1ccccc1 (centres undefined) in this assay? active

What did the test return for O=c1c(-c2ccc(F)cc2)nc2cnc(N3CCNCC3)nc2n1Cc1cccs1 ? active

# lookup: test call for Cc1ccc(-c2c(C)sc(NC(=O)C3C4CCC(O4)C3C(=O)O)c2C(=O)OC(C)C)cc1 (centres undefined) inactive

For O=C(Nc1ccc(Cl)cc1)OCCn1nnnc1C(c1ccccc1Cl)N1CCOCC1 (centres undefined) , which call appears in the assay record? active

Record lookup: outcome of this test for CCSc1nnc(NC(=O)Cc2ccc(OC)c(OC)c2)s1 ? inactive
